experiment: chemical genetic growth profiling, strain panel (AID 1159580);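 note: tested at 20 µM; growth read once vehicle control cultures reached saturation at 30 °C; lower values mean less growth of the strain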; details: S. cerevisiae deletion strains, growth OD, locus YDR137W, strain rgp1
Screen size: about 5,500 compounds; about 2,000 (36%) were called active. About 18% were inconclusive and are not listed. Cut-off read from the data, not from the text of the source: active = normalized growth mostly below about 0.91 (no sharp cut-off); inconclusive = no clear call, values can overlap the other calls; inactive = mostly above about 0.92. This is one part of the list.
Output constraint: value belongs to true = active, false = inactive

Past entries and their recorded results:
{"columns": ["compound", "cat"],
 "data": [
  ["O=c1[nH]cnc2[nH]ncc12", "false"],
  ["CCN(CCCc1ccccc1)CCCc1ccccc1", "true"],
  ["COc1cc(S(C)=O)ccc1-c1nc2ncccc2[nH]1 (stereo not drawn)", "false"],
  ["C=C1C2=CC(=O)O[C@@H](c3ccoc3)[C@]2(C)CCC1[C@@]1(C)C=CC(=O)C(C)(C)[C@@H]1CC(=O)OC (stereo partly drawn)", "false"],
  ["NCC(CC(=O)O)c1ccc(Cl)cc1 (stereo not drawn)", "false"]
]}

Assay result, entry O=c1cc(-c2ccccc2)oc2cc(O)c(O)c(O)c12 — outcome?
true

Give the logged outcome of this assay for the following compound: COc1c(Cl)ccc(Cl)c1C(=O)O
false

Name the outcome recorded for C[C@@H]1O[C@@H](O[C@H]2C[C@@H](O)[C@]3(CO)C4C(CC[C@]3(O)C2)[C@@]2(O)CC[C@H](C3=CC(=O)OC3)[C@@]2(C)C[C@H]4O)[C@H](O)[C@H](O)[C@H]1O (stereo partly drawn) in the assay.
false

Hello, I am checking results. What call was entered for O=C(O)CCC(=O)Nc1ccc(S(=O)(=O)Nc2nccs2)cc1 ?
false

Please let me know the test result on file for O=c1cc(-c2ccc(O)cc2)oc2cc(O)cc(O)c12 .
false

# fetch the recorded call for CC(CN(C)C)CN1c2ccccc2CCc2ccccc21 (stereo not drawn) here
true

For Clc1ccc2c(c1)C(N1CCNCC1)=Nc1ccccc1O2 , what call appears in the results of this test?
true

Please indicate how the test categorized CN(C)N=Nc1nc[nH]c1C(N)=O .
false
